Below is a list of entries, each paired with its recorded inhibition value.
# Test system: YopH tyrosine phosphatase [Yersinia enterocolitica]
# procedure.summary: inhibition of Yersinia YopH phosphatase – biochemical, fluorescence Ex485/Em525, primary screen (AID 898)
# condition.set: hits give high values, concentration not given here
In all, about 140,000 compounds went through this assay and about 220 (0.16%) were called active. What follows is part of a selection rich in actives, with near analogues and random picks from the rest.
endpoint.label: inhibition (%)

1. Cc1cc(C)cc(C(=O)NC(=S)Nc2ccc3[nH]c(=O)[nH]c3c2)c1 :: -11.9
2. COC(=O)C1=NNC2(c3ccc(C)cc3)C(=O)N(c3cccc(C)c3C)C(=O)C12 (configuration not stated) :: -28.4
3. COc1cccc(NC(=S)NCc2ccco2)c1 :: -28.3
4. CCOC(=O)c1c(C)[nH]c(=S)c(C#N)c1-c1ccccc1 :: -37.4
5. COc1ccc(OC)c(C(=O)CSc2nnc(-c3cccs3)o2)c1 :: -17.3
6. COc1ccc(C/C(C)=N/NC(=O)c2cc(C)oc2C)cc1 :: -13.9
7. CCOC(=O)C1=C(c2ccc(OC)cc2)C(=O)c2ccccc2C1=O :: 16.7
8. O=C(COC(=O)/C=C/c1ccc(S(=O)(=O)N2CCCCCC2)cc1)NCc1ccccc1Cl :: -43.5
9. COc1cccc2c1CCC(NC(C)=O)C2=O (configuration not stated) :: -4.91
10. C=CCOc1ccc(/C=N/NC(=O)C(C)Sc2ccccn2)cc1OCC (configuration not stated) :: -28.1
11. Cc1nc2ccccc2n1CC(=O)N/N=C/c1cccs1 :: -17.2
12. CCOc1ncccc1C(=O)N(C)CC(=O)Nc1ccc(F)cc1 :: -16.5
13. COC(=O)Cc1csc(/N=C/c2c(O)n(-c3cccc(C(F)(F)F)c3)c(=O)c3ccccc23)n1 :: -22.8
14. CCCN1CNC(=S)N(CCc2ccccc2)C1 :: -20.8
15. Cc1ccc(-c2cc(C(=O)N/N=C/C=C/c3ccccc3)n[nH]2)o1 :: -23
16. COc1ccc2c(c1)CC[C@@H]1[C@@H]2CC[C@]2(C)C(=O)CC[C@@H]12 :: -40.8
17. CC(C)C(=O)Nc1ccc(C(=O)NNC(=O)c2cccs2)cc1 :: -18.7
18. CN1CCN(c2ccc(NC(=O)c3ccc4c(c3)[nH]c(=O)n4Cc3ccc(F)cc3)cc2)CC1 :: -24.8
19. C/C(=N\NC(=O)CSc1nc2ccccc2c(=O)n1-c1ccccc1C)c1cccs1 :: -17
20. COc1ccc(CNC(=O)CCCn2nc(C)c([N+](=O)[O-])c2C)cc1 :: -22.1
21. CCN(CC)CCn1c(/N=C/c2cc(Br)ccc2O)nc2ccccc21 :: -20.7
22. CC(C)Nc1nnc(SCC(=O)c2c[nH]c3ccccc23)s1 :: -37.7

----------
# Test system: YopH tyrosine phosphatase [Yersinia enterocolitica]
# procedure.summary: inhibition of Yersinia YopH phosphatase – biochemical, fluorescence Ex485/Em525, primary screen (AID 898)
# condition.set: concentration not given here
Screen size: about 140,000 compounds; about 220 (0.16%) were called active. Rule as the data show it: active = inhibition above about 50%; inactive = the rest. This excerpt belongs to a sample that is enriched for actives.
Labels: T (active), F (inactive)

1. Cc1ccccc1C(OCCN(C)C)C1CCCCC1 (configuration not stated) :: F
2. COc1ccccc1N1N=C(c2cccs2)CC1c1ccccc1 (configuration not stated) :: F
3. CCc1ccc(NC(=O)C(C)OC(=O)/C=C/c2cccc([N+](=O)[O-])c2)cc1 (configuration not stated) :: F
4. Cc1ccccc1/[N+]([O-])=C/c1ccncc1 :: T
5. Cc1cc(C)c(C2C3=C(Nc4c2c(C)nn4-c2ccccn2)c2ccccc2C3=O)c(C)c1 (configuration not stated) :: F
6. COc1ccccc1-c1nnc(NC(=O)c2ccc3ncsc3c2)o1 :: F
7. CCOC(=O)c1c(/N=C/c2cc(C)ccc2O)sc2c1CCC2 :: F
8. Cc1ccc(C(=O)N(CN2CCCC2=O)c2ccc(F)cc2)cc1 :: F
9. Nc1nnc(SCC(=O)OCc2ccc(Cl)c(Cl)c2)s1 :: F
10. COc1cc(/C=N/NC(=O)c2ccccc2)ccc1OS(=O)(=O)c1ccccc1 :: F
11. CC(NC(=O)C(=O)NN=C1CCC(C(C)(C)C)CC1)c1ccccc1 (configuration not stated) :: F
12. O=c1[nH]c(CN2CCN(S(=O)(=O)c3ccc4c(c3)OCCO4)CC2)nc2sc3c(c12)CCCC3 :: F
13. Brc1ccc(C2CC(c3ccccc3)=Nc3ccccc3N2)cc1 (configuration not stated) :: F
14. CCOc1ccc(Oc2nc(C)cc(OC)n2)nn1 :: F
15. O=C(COC(=O)c1cc2c(s1)CCCC2)NCc1ccccc1Cl :: F
16. Cc1cc(N2CCOCC2)nc(-c2ccc(Br)cc2)n1 :: F
17. Cc1ccc(/C=C/C(=O)Nc2cc(S(=O)(=O)N3CCCCCC3)ccc2OCC(F)(F)F)o1 :: F
18. COCCCNC(=O)Cn1cc(/C=C(\C#N)C(=O)N2CCN(c3ccccc3)CC2)c2ccccc21 :: F
19. CCCCC(CC(C)O)c1n[nH]c(=S)n1-c1ccccc1 (configuration not stated) :: F
20. Cc1cccc(CSc2ccc(-c3cccs3)nn2)c1 :: F
21. Cc1ccc(C(=O)Oc2coc(CSc3nnc(NC(=O)c4cccs4)s3)cc2=O)cc1C :: F
22. O=C(NC(=S)Nc1cc(C(F)(F)F)ccc1N1CCOCC1)c1ccc(-c2cccc(Cl)c2)o1 :: F

----------
# System: YopH tyrosine phosphatase [Yersinia enterocolitica]
# procedure.summary: inhibition of Yersinia YopH phosphatase – biochemical, fluorescence Ex485/Em525, primary screen (AID 898)
# condition.set: hits give high values, concentration not given here
In all, about 140,000 compounds went through this assay and about 220 (0.16%) were called active. Only a selection was taken, and actives are over-represented in it overall.
Each entry below carries its reported inhibition.
endpoint.label: inhibition (%)

1. CCCCOC(=O)c1ccc(NC(c2ccc(C)cc2)P(=O)(OC)OC)cc1 (configuration not stated) :: -6.33
2. CC(=O)c1c(C)[nH]c(C(=O)OCC(=O)Nc2sc3c(c2C#N)CCCC3)c1C :: -24.9
3. CC1=CC(=C(C#N)c2nc3ccccc3s2)C=C(C)N1c1ccc(F)cc1F :: 79.4
4. CC(C)CNC(=O)COC(=O)c1ccccc1OCC(=O)Nc1ccc(Br)cc1 :: -23.1
5. Cc1cc([N+](=O)[O-])ccc1NC(=O)C1CCCO1 (configuration not stated) :: -25.6
6. O=C1NC(c2ccc(-c3ccccc3[N+](=O)[O-])o2)C(C(=O)c2ccc(Cl)cc2)C(O)(C(F)(F)F)N1 (configuration not stated) :: -11.1
7. CCC(=O)Nc1c(C)n[nH]c1C :: -26.6
8. O=C(NCCC1=CCCCC1)c1ccc(Cl)c([N+](=O)[O-])c1 :: -21.9
9. Cc1cc(SCC(=O)NCCN2C(=O)CSC2=O)nc2ccccc12 :: -4.76
10. CN(C)CCNC(=O)Cc1ccc([N+](=O)[O-])cc1 :: -24.9
11. O=C(Nc1ccccc1Cc1ccccc1)c1ccc2c(c1)SC1=NS(=O)(=O)CCN12 :: -31.8
12. N#C/C(=C(/O)Cc1cccc2ccccc12)c1nc2ccccc2s1 :: -11
13. Cc1ccc(-n2c(SCC(=O)Nc3ncc(Cl)cc3Cl)nc3ccccc32)cc1 :: 8.79
14. COC(=O)/C=C\C(=O)Nc1cccc([N+](=O)[O-])c1 :: -15.7
15. COC(=O)c1nc2ccccc2s1 :: -16.5
16. CC1(c2ccccc2)CC(C)(C)N(C(=O)c2cc([N+](=O)[O-])cc([N+](=O)[O-])c2)c2ccccc21 (configuration not stated) :: -29.6
17. CC/C(=N\NC(=O)c1ccccc1Cl)c1ccc(Br)s1 :: -30
18. Cc1ccccc1-n1nc(C)c2c1N=C1C(Cl)=CC(Cl)=CN1C2c1ccc(C(=O)O)cc1 (configuration not stated) :: -22.9
19. O=C(Nc1nnc(SCc2ccccc2Cl)s1)c1cccc([N+](=O)[O-])c1 :: -19.7
20. COc1cc(/C=N/NC(=O)CCc2n[nH]c(=O)[nH]c2=O)ccc1O :: -11.1
21. Cc1c(NC(=S)Nc2ccccc2)c(=O)n(-c2ccccc2)n1C :: -29.6
22. CN(C)c1ccc(/C=N/N(Cc2ccccc2)c2ccccc2)cc1 :: -23.4

----------
# System: YopH tyrosine phosphatase [Yersinia enterocolitica]
# procedure.summary: inhibition of Yersinia YopH phosphatase – biochemical, fluorescence Ex485/Em525, primary screen (AID 898)
# condition.set: hits give high values, concentration not given here
The campaign covered roughly 140,000 compounds. About 220 (0.16%) were called active. The entries come from a sample that favours actives as a whole.
Reported inhibition values for the following compounds.
endpoint.label: inhibition (%)

1. O=C(NNC(=O)c1cc2c(s1)CCCC2)c1ccccc1 :: -2.47
2. CCOc1ncccc1C(=O)N(CC)CC(=O)Nc1ccc(NC(C)=O)cc1 :: -14.7
3. CC(=O)Nc1ccc(C(=O)OCC(=O)Nc2ccc([N+](=O)[O-])cc2C(F)(F)F)cc1 :: -15.8
4. C=CCn1c(SCC(N)=O)nnc1-c1cc2c(s1)CCC(CC)C2 (stereo unspecified) :: -11
5. CC(=O)Nc1cccc(/C(C)=N/NC(=O)c2c(-c3ccccc3Cl)noc2C)c1 :: -32.1
6. COC(=O)Cc1ccc(NC(=S)NCc2ccccc2)cc1 :: -21.4
7. CCC(C)(C(=O)Nc1ccccc1C)N(C(=O)CNC(C)=O)c1ccc(C)cc1 (stereo unspecified) :: -34.2
8. CN(CC(=O)NCCc1ccccc1)S(=O)(=O)c1cnc[nH]1 :: -21
9. Cc1scc(C(=O)NNC(=S)NCC(C)C)c1C :: -19.1
10. CCCc1nc(SCC(=O)Nc2ccc(S(=O)(=O)N(C)C)cc2)c2ccccc2n1 :: -25.4
11. Cc1ccc(S(=O)(=O)Nc2nc(C)cc(N/N=C/c3ccc(O)cc3)n2)cc1 :: -24.5

Recorded values, source PubChem BioAssay AID898.
